Where do these numbers come from? They come from the nanobody polyreactivity screen of Harvey et al. (2022).

Assay: yeast display, Sf9 membrane polyspecificity reagent, FACS + sequencing; frameworks hold sequencing errors
observed.property: polyreactivity (PSR sort gate)

{"sequence.record": "QVQLVESGGGLVQAGGSLRLSCAASGITFYKYVMGWYRQAPGKERELVAAISSVGSTYYADSVKGRFTISRDNAKNTVYLQMNSLKPEDTAVYYCNARVYYSTTRYYVRVDYWGQGTQVTVSS", "result": "high polyreactivity"}
{"sequence.record": "QVQLVESGGGLVQAGGSLRLSCAASGRIFEDYAMGWYRQAPGKERELVAAISSGGSTYADSVKGRFTISRDNAKNTVYLQMNSLKPEDTAVYYCAAYYRRSTYYYWGQGTQVTVSS", "result": "high polyreactivity"}
